experiment: Pharmacokinetic test of Compound 35 and Compound 58 in mice (intravenous and intragastric); assay type: in vivo; conditions: mouse, plasma, po; intragastric administration, 2 mg/kg, male CD-1 mice
Attribute Measured: bioavailability
Just the number plus its unit, please.

Bench note: what bioavailability did CCc1cc(=O)n2cc(N3C(=S)N(c4ccc(C#N)c(C(F)(F)F)c4)C(=O)C3(C)C)cc(F)c2n1 [Compound 35] show?
94%

###

Target: UniProt P10275
Sequence (P10275 1-920): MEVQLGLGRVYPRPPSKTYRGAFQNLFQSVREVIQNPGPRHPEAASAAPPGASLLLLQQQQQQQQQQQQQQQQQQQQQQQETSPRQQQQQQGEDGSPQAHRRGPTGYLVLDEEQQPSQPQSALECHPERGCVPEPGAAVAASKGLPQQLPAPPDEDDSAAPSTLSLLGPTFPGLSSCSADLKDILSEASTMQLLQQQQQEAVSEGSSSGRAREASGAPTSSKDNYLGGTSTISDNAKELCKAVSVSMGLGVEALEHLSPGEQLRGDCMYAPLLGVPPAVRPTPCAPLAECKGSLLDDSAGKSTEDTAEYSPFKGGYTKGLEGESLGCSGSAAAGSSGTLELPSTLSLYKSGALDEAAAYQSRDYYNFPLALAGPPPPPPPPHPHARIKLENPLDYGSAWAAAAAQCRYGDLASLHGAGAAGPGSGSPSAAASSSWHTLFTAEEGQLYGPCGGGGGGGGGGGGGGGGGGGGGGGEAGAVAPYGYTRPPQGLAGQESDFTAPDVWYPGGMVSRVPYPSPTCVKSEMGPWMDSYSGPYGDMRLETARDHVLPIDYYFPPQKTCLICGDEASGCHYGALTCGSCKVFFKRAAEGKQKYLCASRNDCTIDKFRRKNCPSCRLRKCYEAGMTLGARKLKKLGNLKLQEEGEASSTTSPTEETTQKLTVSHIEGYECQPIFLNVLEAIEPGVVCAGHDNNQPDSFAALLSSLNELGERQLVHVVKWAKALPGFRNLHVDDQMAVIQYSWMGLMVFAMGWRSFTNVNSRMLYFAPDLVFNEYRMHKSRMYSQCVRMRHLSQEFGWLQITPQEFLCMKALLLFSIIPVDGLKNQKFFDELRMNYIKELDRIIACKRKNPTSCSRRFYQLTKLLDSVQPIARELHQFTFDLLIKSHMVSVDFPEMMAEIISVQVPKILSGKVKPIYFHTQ
Assay: Antagonism of compounds on nuclear translocation of androgen receptor (PathHunter NHR cell lines)
Settings: antagonist mode, agonist 6a-Fluorotestosterone 0.06 μM (EC80)
Attribute Measured: pIC50
Please report pIC50 as the negative decimal logarithm of the molar concentration, giving only the number.

Bench note: what pIC50 did "CCc1nc2c(F)cc(N3C(=S)N(c4ccc(C#N)c(C(F)(F)F)c4)C(=O)C3(C)C)cn2c(=O)c1O" show?
5.23

Bench note: what pIC50 did "CCc1nc2ccc(N3C(=S)N(c4ccc(C#N)c(C(F)(F)F)c4)C(=O)C3(C)C)cn2c(=O)c1OCCOC" show?
5.35

Bench note: what pIC50 did "COCCOc1cc(=O)n2cc(N3C(=S)N(c4ccc(C#N)c(C(F)(F)F)c4)C(=O)C3(C)C)cc(F)c2n1" show?
5.68

Bench note: what pIC50 did "CCc1nc2c(F)cc(-n3c(=S)n(-c4ccc(C#N)c(C(F)(F)F)c4)c4nccc(C)c43)cc2c(=O)[nH]1" show?
5.58

Bench note: what pIC50 did "CCN1CCOc2cc(N3C(=O)N(c4ccc(C#N)c(C(F)(F)F)c4)C(=O)C3(C)C)ccc2C1=O" show?
5.66

Bench note: what pIC50 did "CCc1nc(OCCO)c2cc(N3C(=S)N(c4ccc(C#N)c(C(F)(F)F)c4)C(=O)C3(C)C)cc(F)c2n1" show?
5.77

Bench note: what pIC50 did CCc1nc(OC2COC[C@H]2O)c2cc(N3C(=S)N(c4ccc(C#N)c(C(F)(F)F)c4)C(=O)C3(C)C)cc(F)c2n1 (stereo partly shown) show?
5.42
